Test system: ASPC1
Test: Cytotoxicity against human Aspc-1 cells after 72 hrs under hypoxic condition by MTT assay
Assay type: functional, cell-based
Conditions: ASPC1, 72 h
Below is a list of entries, each paired with its recorded pIC50 value.
The read-out pIC50 is expressed as -log10 of concentration in moles per litre.

- molecule: "C=C1/C=C/C(=O)N(C)C(C)C(=O)N[C@@H]([C@H](O)C(=O)OC)C(=O)O[C@@H]([C@H](C)CCCCCCCCCCCC(C)C)[C@H](C)C(=O)N1 (single isomer, unassigned; 1d)"
  pIC50: 6.40

Enquiry: # input molecule: `C=C1/C=C/C(=O)N(C)CC(=O)N[C@@H](CC(=O)NC2CC2)C(=O)O[C@@H]([C@H](C)CCCCCCCCCCCCCC)[C@H](C)C(=O)N1` ; wanted: its pIC50
Return: 7.66

Enquiry: # input molecule: `C=C1/C=C/C(=O)N(C)CC(=O)N[C@@H](CC(=O)OC)C(=O)O[C@@H]([C@H](C)CCCCCCCCCCCC(C)C)[C@H](C)C(=O)N1` ; wanted: its pIC50
Return: 6.22

====

Below is a list of entries, each paired with its recorded IC50 value.
Tested on: PaTu 8988t
Experiment: Cytotoxicity against human PA-TU-8988T cells after 72 hrs under hypoxic condition by MTT assay
Type: functional, cell-based
The response must be a number in nM with no trailing unit.

- compound: "C#CCOC(=O)C[C@@H]1NC(=O)CN(C)C(=O)/C=C/C(=C)NC(=O)[C@@H](C)[C@H]([C@H](C)CCCCCCCCCCCC(C)C)OC1=O"
  IC50, nM: 110
- compound: "C=C1/C=C/C(=O)N(C)CC(=O)N[C@@H]([C@H](O)C(=O)OC)C(=O)O[C@@H]([C@H](C)CCCCCCCCCCCC(C)C)[C@H](C)C(=O)N1"
  IC50, nM: 120

Enquiry: # input compound: `C=C1/C=C/C(=O)N(C)CC(=O)NCC(=O)O[C@@H]([C@H](C)CCCCCCCCCCCCCC)[C@H](C)C(=O)N1` ; wanted: its IC50
Return: 440

Enquiry: # input compound: C=C1/C=C/C(=O)N(C)C(C)C(=O)N[C@@H]([C@H](O)C(=O)OC)C(=O)O[C@@H]([C@H](C)CCCCCCCCCCCC(C)C)[C@H](C)C(=O)N1 (single isomer, unassigned; 1c) ; wanted: its IC50
Return: 200

Enquiry: # input compound: `C=C1/C=C/C(=O)N(C)CC(=O)N[C@@H](CC(=O)OC)C(=O)O[C@@H]([C@H](C)CCCCCCCCCCCC(C)C)[C@H](C)C(=O)N1` ; wanted: its IC50
Return: 73

Enquiry: # input compound: `C=C1/C=C/C(=O)N(C)CC(=O)N[C@@H](CC(=O)OCC)C(=O)O[C@@H]([C@H](C)CCCCCCCCCCCC(C)C)[C@H](C)C(=O)N1` ; wanted: its IC50
Return: 110

Enquiry: # input compound: `C=C1/C=C/C(=O)N(C)CC(=O)N[C@@H](CC(=O)NC)C(=O)O[C@@H]([C@H](C)CCCCCCCCCCCCCC)[C@H](C)C(=O)N1` ; wanted: its IC50
Return: 60

Enquiry: # input compound: `C=C1/C=C/C(=O)N(C)CC(=O)N[C@@H]([C@H](O)C(N)=O)C(=O)O[C@@H]([C@H](C)CCCCCCCCCCCC(C)C)[C@H](C)C(=O)N1` ; wanted: its IC50
Return: 33

====

Below is a list of entries, each paired with its recorded IC50 value.
Test system: ASPC1
Assay: Cytotoxicity against human Aspc-1 cells after 72 hrs under hypoxic condition by MTT assay
Type: functional, cell-based
Conditions: ASPC1, 72 h
The response must be a number in nM with no trailing unit.

Some solved cases for reference:
- compound: "C=C1/C=C/C(=O)N(C)CC(=O)N[C@@H]([C@H](O)C(=O)OC)C(=O)O[C@@H]([C@H](C)CCCCCCCCCCCC(C)C)[C@H](C)C(=O)N1"
  study-system: "ASPC1"
  IC50 / nM: 150
- compound: "C=C1/C=C/C(=O)N(C)CC(=O)N[C@@H](CC(=O)OC)C(=O)O[C@@H]([C@H](C)CCCCCCCCCCCCCC)[C@H](C)C(=O)N1"
  study-system: "ASPC1"
  IC50 / nM: 350
- compound: "COc1cccc2c1C(=O)c1c(O)c3c(c(O)c1C2=O)C[C@@](O)(C(=O)CO)C[C@@H]3O[C@H]1C[C@H](N)[C@H](O)[C@H](C)O1.Cl [DOXORUBICIN HYDROCHLORIDE]"
  study-system: "ASPC1"
  IC50 / nM: 2000
- compound: "C=C1/C=C/C(=O)N(C)C(C)C(=O)N[C@@H]([C@H](O)C(=O)OC)C(=O)O[C@@H]([C@H](C)CCCCCCCCCCCC(C)C)[C@H](C)C(=O)N1 (single isomer, unassigned; 1c)"
  study-system: "ASPC1"
  IC50 / nM: 200

Enquiry: # input compound: `C=C1/C=C/C(=O)N(C)CC(=O)N[C@@H](CC(=O)NC)C(=O)O[C@@H]([C@H](C)CCCCCCCCCCCCCC)[C@H](C)C(=O)N1` ; wanted: its IC50
Return: 46

====

System: PaTu 8988t
Test: Cytotoxicity against human PA-TU-8988T cells after 72 hrs under hypoxic condition by MTT assay
Format: functional, cell-based
reported-metric: pIC50
The read-out pIC50 is expressed as -log10 of concentration in moles per litre.

- compound: "C=C1/C=C/C(=O)N(C)C(C)C(=O)N[C@@H]([C@H](O)C(=O)OC)C(=O)O[C@@H]([C@H](C)CCCCCCCCCCCC(C)C)[C@H](C)C(=O)N1 (single isomer, unassigned; 1d)"
  reported-metric: "pIC50"
  value-measured: 6.42
- compound: "C=C1/C=C/C(=O)N(C)CC(=O)N[C@@H]([C@H](O)C(=O)OCC)C(=O)O[C@@H]([C@H](C)CCCCCCCCCCCC(C)C)[C@H](C)C(=O)N1"
  reported-metric: "pIC50"
  value-measured: 6.92

Enquiry: # input compound: `C=C1/C=C/C(=O)N(C)CC(=O)N[C@@H](CC(=O)NC2CC2)C(=O)O[C@@H]([C@H](C)CCCCCCCCCCCCCC)[C@H](C)C(=O)N1` ; wanted: its pIC50
Return: 7.62

Enquiry: # input compound: `C=C1/C=C/C(=O)N(C)CC(=O)N[C@@H](Cc2ccccc2)C(=O)O[C@@H]([C@H](C)CCCCCCCCCCCCCC)[C@H](C)C(=O)N1` ; wanted: its pIC50
Return: 6.19

Enquiry: # input compound: `C=C1/C=C/C(=O)N(C)CC(=O)N[C@@H](CC(=O)OC)C(=O)O[C@@H]([C@H](C)CCCCCCCCCCCCCC)[C@H](C)C(=O)N1` ; wanted: its pIC50
Return: 6.47

====

Tested on: ASPC1
Experiment: Cytotoxicity against human Aspc-1 cells after 72 hrs under hypoxic condition by MTT assay
Type: functional, cell-based
Settings: ASPC1, 72 h
reported-metric: IC50
# include the unit after the value

Some solved cases for reference:
- input-smiles: "C=C1/C=C/C(=O)N(C)CC(=O)N[C@@H](CC(=O)OCC)C(=O)O[C@@H]([C@H](C)CCCCCCCCCCCC(C)C)[C@H](C)C(=O)N1"
  IC50: "0.15 µM"
- input-smiles: "C=C1/C=C/C(=O)N(C)CC(=O)N[C@@H](Cc2ccccc2)C(=O)O[C@@H]([C@H](C)CCCCCCCCCCCCCC)[C@H](C)C(=O)N1"
  IC50: "0.6 µM"
- input-smiles: "C=C1/C=C/C(=O)N(C)CC(=O)N[C@@H]([C@H](O)C(N)=O)C(=O)O[C@@H]([C@H](C)CCCCCCCCCCCC(C)C)[C@H](C)C(=O)N1"
  IC50: "0.082 µM"
- input-smiles: "C=C1/C=C/C(=O)N(C)CC(=O)NCC(=O)O[C@@H]([C@H](C)CCCCCCCCCCCCCC)[C@H](C)C(=O)N1"
  IC50: "0.49 µM"
- input-smiles: "C#CCOC(=O)C[C@@H]1NC(=O)CN(C)C(=O)/C=C/C(=C)NC(=O)[C@@H](C)[C@H]([C@H](C)CCCCCCCCCCCC(C)C)OC1=O"
  IC50: "0.12 µM"

Next up:
Enquiry: # input molecule: `C=C1/C=C/C(=O)N(C)CC(=O)N[C@@H]([C@H](O)C(=O)OCC)C(=O)O[C@@H]([C@H](C)CCCCCCCCCCCC(C)C)[C@H](C)C(=O)N1` ; wanted: its IC50
Return: 0.18 µM

Each recorded value in this set is attributed to ChEMBL document CHEMBL4152216.
